Source of measurements: paper PMC7489219

- Tested on: primary mouse cortical neurons
- Construct: primary cortical neurons, DIV 10
- measurementNotes: cells
- Design: Protection from NMDA-induced (30 uM, 10 min) neuronal death; Hoechst nuclear morphology by automated microscopy
- cond: Cortical neurone, 20 h, read-out: % inhibition, inhibition of NMDA-induced cell death (protection score), 30 min pre-treatment
Structures can show the parent of a compound that is named as a salt.
measurementLabel: inhibition at 10 µM (%)
The figure you give is taken to be in %; do not add the unit.

Example entries and their recorded answers appear below.
INSERT INTO assay_data (compound, measurementtarget, observedvalue) VALUES
  ('COc1cc(CNC(=O)CCCC/C=C/C(C)C)ccc1O', 'primary mouse cortical neurons', -2.28),
  ('O=c1cc(-c2ccccc2)oc2cc(O)cc(O)c12', 'primary mouse cortical neurons', -0.0506),
  ('N[C@@H](Cc1c[nH]c2ccc(O)cc12)C(=O)O [5-hydroxytryptophan (5-HTP)]', 'primary mouse cortical neurons', -0.632),
  ('Nc1ccc(S(N)(=O)=O)cc1 [Sulfanilamide]', 'primary mouse cortical neurons', 17.7),
  ('O=c1[nH]cnc2[nH]ncc12 [Allopurinol Sodium (Aloprim)]', 'primary mouse cortical neurons', 21.4);

Task item: Query inhibition at 10 µM for c1ccc([C@H]2CN3CCSC3=N2)cc1 [Levamisole Hydrochloride (Ergamisol)]
Reply: 19.8

Task item: Query inhibition at 10 µM for CCC(=O)OCC(=O)[C@@]1(OC(=O)CC)[C@@H](C)C[C@H]2[C@@H]3CCC4=CC(=O)C=C[C@]4(C)[C@@]3(F)[C@@H](O)C[C@@]21C [Betamethasone dipropionate]
Reply: 6.47

Task item: Query inhibition at 10 µM for CN(C)[C@@H](CCOc1cccc2ccccc12)c1ccccc1 [Dapoxetine hydrochloride (Priligy)]
Reply: -1.89

Task item: Query inhibition at 10 µM for COC(=O)C1=C(C)NC(C)=C(C(=O)OCC(C)C)C1c1ccccc1[N+](=O)[O-] (stereo not shown) [Nisoldipine (Sular)]
Reply: -2.86

Task item: Query inhibition at 10 µM for O=C1NC(=O)C(c2ccccc2)(c2ccccc2)N1 [Phenytoin (Lepitoin)]
Reply: 21.2

---

Let's look at some compounds and their measured inhibition at 10 µM.
- Tested on: primary mouse cortical neurons
- Construct: primary cortical neurons, DIV 10
- measurementNotes: cells
- Parameters: Protection from NMDA-induced (30 uM, 10 min) neuronal death; Hoechst nuclear morphology by automated microscopy
- cond: Cortical neurone, 20 h, read-out: % inhibition, inhibition of NMDA-induced cell death (protection score), 30 min pre-treatment
Structures can show the parent of a compound that is named as a salt.
Include the unit after the number when you answer.

Example entries and their recorded answers appear below.
INSERT INTO measurements (compound, observedvalue) VALUES
  ('COc1ccc(Cl)cc1C(=O)NCCc1ccc(S(=O)(=O)NC(=O)NC2CCCCC2)cc1 [Glyburide (Diabeta)]', '0.906%'),
  ('CC(=O)N[C@@H](CS)C(=O)O [Acetylcysteine]', '29%'),
  ('NCCc1ccc(O)c(O)c1 [Dopamine hydrochloride (Inotropin)]', '-1.44%'),
  ('O=c1[nH]c2ccccc2n1CCCN1CCC(n2c(=O)[nH]c3cc(Cl)ccc32)CC1 [Domperidone (Motilium)]', '-9.12%');

Okay, now this compound:
Task item: Query inhibition at 10 µM for N=C(N)NC(=O)c1nc(Cl)c(N)nc1N [Amiloride hydrochloride (Midamor)]
Reply: -0.812%

---

- Tested on: primary mouse cortical neurons
- Construct: primary cortical neurons, DIV 10
- measurementNotes: cells
- Set-up: Protection from NMDA-induced (30 uM, 10 min) neuronal death; Hoechst nuclear morphology by automated microscopy
- cond: Cortical neurone, 20 h, read-out: % inhibition, inhibition of NMDA-induced cell death (protection score), 30 min pre-treatment
Let's look at some compounds and their measured inhibition at 10 µM.
The figure you give is taken to be in %; do not add the unit.

Example entries and their recorded answers appear below.
INSERT INTO assay_data (compound, observedvalue) VALUES
  ('O=C(CCCN1CCC(O)(c2ccc(Cl)cc2)CC1)c1ccc(F)cc1', 65),
  ('NS(=O)(=O)c1cc2c(cc1Cl)N=CNS2(=O)=O [Chlorothiazide]', 31.3),
  ('CC(C)=CCC[C@]1(C)C=Cc2c(O)c3c(c(CC=C(C)C)c2O1)O[C@]12C(=C[C@@H]4C[C@H]1C(C)(C)O[C@@]2(C/C=C(/C)C(=O)O)C4=O)C3=O', 14.8);

Okay, now this compound:
Task item: Query inhibition at 10 µM for O=c1c2ccccc2nc2n1CCc1c-2[nH]c2ccccc12 [Rutaecarpine (Rutecarpine)]
Reply: 5.35

---

Let's look at some molecules and their measured inhibition at 10 µM.
- Test system: primary mouse cortical neurons
- Construct: primary cortical neurons, DIV 10
- measurementNotes: cells
- Set-up: Protection from NMDA-induced (30 uM, 10 min) neuronal death; Hoechst nuclear morphology by automated microscopy
- cond: Cortical neurone, 20 h, read-out: % inhibition, inhibition of NMDA-induced cell death (protection score), 30 min pre-treatment
Where a name gives a salt, the structure may show the parent alone.
Include the unit after the number when you answer.

Example entries and their recorded answers appear below.
INSERT INTO assay_data (molecule, measurementtarget, observedvalue) VALUES
  ('OC[C@@H](O)[C@@H](O)[C@H](O)[C@@H](O)CO [Sorbitol (Glucitol)]', 'primary mouse cortical neurons', '3.24%'),
  ('Oc1ncnc2[nH]ncc12 [Allopurinol (Zyloprim)]', 'primary mouse cortical neurons', '19.8%'),
  ('CN(C)CCCN1c2ccccc2CCc2ccc(Cl)cc21 [Clomipramine hydrochloride (Anafranil)]', 'primary mouse cortical neurons', '-0.839%');

Okay, now this molecule:
Task item: Query inhibition at 10 µM for Cc1cc2nc3c(=O)[nH]c(=O)nc-3n(C[C@H](O)[C@H](O)[C@H](O)CO)c2cc1C [Riboflavin (Vitamin B2)]
Reply: 1.7%

---

- Test system: primary mouse cortical neurons
- Construct: primary cortical neurons, DIV 10
- measurementNotes: cells
- Parameters: Protection from NMDA-induced (30 uM, 10 min) neuronal death; Hoechst nuclear morphology by automated microscopy
- cond: Cortical neurone, 20 h, read-out: % inhibition, inhibition of NMDA-induced cell death (protection score), 30 min pre-treatment
Let's look at some compounds and their measured inhibition at 10 µM.
The figure you give is taken to be in %; do not add the unit.

Example entries and their recorded answers appear below.
INSERT INTO measurements (compound, measurementlabel, observedvalue) VALUES
  ('CC1(C)[C@@H](O)CC[C@]2(C)[C@H]3C(=O)C=C4[C@@H]5C[C@@](C)(C(=O)O)CC[C@]5(C)CC[C@@]4(C)[C@]3(C)CC[C@@H]12 [Enoxolone (Glycyrrhetin)]', 'inhibition at 10 µM', -0.00685),
  ('NNC(=O)c1ccncc1 [Isoniazid (Tubizid)]', 'inhibition at 10 µM', 45.6);

Task item: Query inhibition at 10 µM for CCC1=C(C)CN(C(=O)NCCc2ccc(S(=O)(=O)NC(=O)N[C@H]3CC[C@H](C)CC3)cc2)C1=O [Glimepiride]
Reply: -11.4

Task item: Query inhibition at 10 µM for COc1cc2c(cc1OC)-c1cc3ccc(OC)c(OC)c3c[n+]1CC2 [Palmatine chloride]
Reply: 8.5

Task item: Query inhibition at 10 µM for Cc1ccc(C)c(OCCCC(C)(C)C(=O)O)c1 [Gemfibrozil (Lopid)]
Reply: 2.6

Task item: Query inhibition at 10 µM for C[C@@H]1O[C@@H](O[C@H]2[C@H](Oc3cc(O)c(C(=O)CCc4ccc(O)cc4)c(O)c3)O[C@H](CO)[C@@H](O)[C@@H]2O)[C@H](O)[C@H](O)[C@H]1O [Naringin Dihydrochalcone (Naringin DC)]
Reply: 7.97

Task item: Query inhibition at 10 µM for C[C@@H](O[C@H]1OCCN(Cc2n[nH]c(=O)[nH]2)[C@H]1c1ccc(F)cc1)c1cc(C(F)(F)F)cc(C(F)(F)F)c1 [Aprepitant (MK-0869)]
Reply: 17.6

---

- System: primary mouse cortical neurons
- Construct: primary cortical neurons, DIV 10
- measurementNotes: cells
- Design: Protection from NMDA-induced (30 uM, 10 min) neuronal death; Hoechst nuclear morphology by automated microscopy
- cond: Cortical neurone, 20 h, read-out: % inhibition, inhibition of NMDA-induced cell death (protection score), 30 min pre-treatment
Where a name gives a salt, the structure may show the parent alone.
Let's look at some molecules and their measured inhibition at 10 µM.
The figure you give is taken to be in %; do not add the unit.

Example entries and their recorded answers appear below.
INSERT INTO results (molecule, observedvalue) VALUES
  ('CCCc1nn(C)c2c(=O)[nH]c(-c3cc(S(=O)(=O)N4CCN(C)CC4)ccc3OCC)nc12 [Sildenafil citrate]', 4.4),
  ('Cc1coc2c1C(=O)C(=O)c1c-2ccc2c1CCCC2(C)C [Tanshinone IIA (Tanshinone B)]', 3.42),
  ('COc1nc(N)nc2c1ncn2[C@@H]1O[C@H](CO)[C@@H](O)[C@@H]1O [Nelarabine (Arranon)]', -9.06);

Task item: Query inhibition at 10 µM for O=C(O)COCCN1CCN(C(c2ccccc2)c2ccc(Cl)cc2)CC1 (stereo not shown) [Cetirizine Dihydrochloride]
Reply: -10.5

Task item: Query inhibition at 10 µM for COc1cc2c(cc1OC)C(=O)C(CC1CCN(Cc3ccccc3)CC1)C2 (stereo not shown) [Donepezil HCl (Aricept)]
Reply: -8.98

Task item: Query inhibition at 10 µM for COc1cc2c(cc1O)CC[C@@H]1[C@@H]2CC[C@]2(C)[C@@H](O)CC[C@@H]12 [2-Methoxyestradiol]
Reply: 19.8

Task item: Query inhibition at 10 µM for CC(C)[C@H]1CC[C@H](C(=O)N[C@H](Cc2ccccc2)C(=O)O)CC1 [Nateglinide (Starlix)]
Reply: 42.4
